experimental-details: Lipophilicity, chromatographic hydrophobicity index on C18 (Valko protocol)
Assay type: physicochemical
reported-conditions: pH 2.6

[
  {
    "compound": "O=S(=O)(NCCCCCCNc1ncc2ccccc2n1)c1cccc2ccccc12",
    "CHI C18 pH 2.6": 99
  },
  {
    "compound": "CC1NC(NCCCCCCNS(=O)(=O)c2c(Cl)ccc3ccccc23)=Nc2ccccc21 (stereo not drawn)",
    "CHI C18 pH 2.6": 115.8
  },
  {
    "compound": "O=S1(=O)c2cccc3cccc(c23)N1CCCCCCNC1=Nc2ccccc2CN1",
    "CHI C18 pH 2.6": 84.7
  },
  {
    "compound": "CC1NC(NCCCCCCNS(=O)(=O)c2cccc3ccccc23)=Nc2ccccc21 (stereo not drawn)",
    "CHI C18 pH 2.6": 89.8
  },
  {
    "compound": "CC1NC(NCCCCCCNS(=O)(=O)c2cccc3ccccc23)=Nc2c(Cl)cc(Cl)cc21 (stereo not drawn)",
    "CHI C18 pH 2.6": 97.1
  },
  {
    "compound": "O=S(=O)(NCCNC1=Nc2ccccc2CN1)c1cccc2ccccc12",
    "CHI C18 pH 2.6": 64.9
  },
  {
    "compound": "CC1NC(NCCCCCCNS(=O)(=O)c2cccc3ccccc23)=Nc2cccc(F)c21 (stereo not drawn)",
    "CHI C18 pH 2.6": 103.4
  },
  {
    "compound": "O=S(=O)(NCCNc1ncc2ccccc2n1)c1cccc2ccccc12",
    "CHI C18 pH 2.6": 78.3
  },
  {
    "compound": "O=S(=O)(c1cccc2ccccc12)N1CCN(CCNC2=Nc3ccccc3CN2)CC1",
    "CHI C18 pH 2.6": 92.9
  }
]
